Reported inhibition at 5 µM values are given for each entry in this list.
# testedTarget: human Thrombin (Homo sapiens, UniProt P00734)
# protocolText: Selectivity screening, human serine protease thrombin
# Type: biochemical
# measurementSetup: at 5 μM; read-out: inhibition of human Thrombin
Where a SMILES comes first, the peptide text is derived from it. [ ]: non-standard residue; d: D form. The star is where a group is joined. Palmitoyl = CCCCCCCCCCCCCCCC(=O)*; β3hK = NCCCC[C@H](N)CC(=O)O
measuredMetric: inhibition at 5 µM

- CCCCCCCCCCCCCCCC(=O)N[C@@H](CCCCC(=N)N)C(=O)N[C@@H](Cc1c[nH]cn1)C(N)=O: < 5%
- CCCCCCCCCCCCCCCC(=O)N[C@H](CCCNC(=N)N)C(=O)N[C@@H](CCC(N)=O)C(=O)N[C@@H](Cc1ccccc1)C(N)=O [compound 44] (Palmitoyl-[dR]-Gln-Phe-NH2): < 5%
- CCCCCCCCCCCCCCCC(=O)N[C@@H](CCCCN)CC(=O)N1CCC[C@H]1C(=O)N[C@@H](C)C(=O)N[C@@H](Cc1ccccc1)C(N)=O [compound 116] (Palmitoyl-[β3hK]PAF-NH2): < 5%
